Source listed as patent US20130210709A1.

# tested.system: CXCR4 receptor (human, UniProt P61073 1-352)
# Sequence (P61073 whole entry): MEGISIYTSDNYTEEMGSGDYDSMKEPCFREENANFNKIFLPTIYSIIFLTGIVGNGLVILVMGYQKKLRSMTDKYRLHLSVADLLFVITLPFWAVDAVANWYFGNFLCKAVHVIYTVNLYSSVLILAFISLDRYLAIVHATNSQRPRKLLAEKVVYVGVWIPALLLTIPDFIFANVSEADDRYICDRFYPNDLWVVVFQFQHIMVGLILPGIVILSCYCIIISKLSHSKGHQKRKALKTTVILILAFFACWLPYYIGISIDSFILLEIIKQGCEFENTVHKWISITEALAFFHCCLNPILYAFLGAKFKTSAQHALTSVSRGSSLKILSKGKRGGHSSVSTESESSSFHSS
# assay.protocol: cell-based or functional assay
* marks the point of attachment. Palmitoyl = CCCCCCCCCCCCCCCC(=O)*
Quick reference: Max (% of), CHTX, SUP B-15, 1.0 uM of the listed items.
Write your answer as a measured quantity: the number, then the unit.

Example results:
>>> reported_result("Palmitoyl-KKLRSMTDKYRLHLSV-NH2 (SMILES CCCCCCCCCCCCCCCC(=O)N[C@@H](CCCCN)C(=O)N[C@@H](CCCCN)C(=O)N[C@@H](CC(C)C)C(=O)N[C@@H](CCCNC(=N)N)C(=O)N[C@@H](CO)C(=O)N[C@@H](CCSC)C(=O)N[C@H](C(=O)N[C@@H](CC(=O)O)C(=O)N[C@@H](CCCCN)C(=O)N[C@@H](Cc1ccc(O)cc1)C(=O)N[C@@H](CCCNC(=N)N)C(=O)N[C@@H](CC(C)C)C(=O)N[C@@H](Cc1c[nH]cn1)C(=O)N[C@@H](CC(C)C)C(=O)N[C@@H](CO)C(=O)N[C@H](C(N)=O)C(C)C)[C@@H](C)O) [CXCR4 i1 loop compound 41]")
"41.7%"
>>> reported_result("Palmitoyl-KKLRSMTDKYR-NH2 (SMILES CCCCCCCCCCCCCCCC(=O)N[C@@H](CCCCN)C(=O)N[C@@H](CCCCN)C(=O)N[C@@H](CC(C)C)C(=O)N[C@@H](CCCNC(=N)N)C(=O)N[C@@H](CO)C(=O)N[C@@H](CCSC)C(=O)N[C@H](C(=O)N[C@@H](CC(=O)O)C(=O)N[C@@H](CCCCN)C(=O)N[C@@H](Cc1ccc(O)cc1)C(=O)N[C@@H](CCCNC(=N)N)C(N)=O)[C@@H](C)O) [CXCR4 i1 loop compound 45]")
"194%"

Task item: Please look at this binder and report its Max (% of), CHTX, SUP B-15, 1.0 uM: Palmitoyl-KKLRSMTDKYRLH-NH2 (SMILES CCCCCCCCCCCCCCCC(=O)N[C@@H](CCCCN)C(=O)N[C@@H](CCCCN)C(=O)N[C@@H](CC(C)C)C(=O)N[C@@H](CCCNC(=N)N)C(=O)N[C@@H](CO)C(=O)N[C@@H](CCSC)C(=O)N[C@H](C(=O)N[C@@H](CC(=O)O)C(=O)N[C@@H](CCCCN)C(=O)N[C@@H](Cc1ccc(O)cc1)C(=O)N[C@@H](CCCNC(=N)N)C(=O)N[C@@H](CC(C)C)C(=O)N[C@@H](Cc1c[nH]cn1)C(N)=O)[C@@H](C)O) [CXCR-4 receptor Compound No. 43]
Reply: 55.8%

Task item: Using the record for Palmitoyl-MGYQKKLRSMTDKY-NH2 (SMILES CCCCCCCCCCCCCCCC(=O)N[C@@H](CCSC)C(=O)NCC(=O)N[C@@H](Cc1ccc(O)cc1)C(=O)N[C@@H](CCC(N)=O)C(=O)N[C@@H](CCCCN)C(=O)N[C@@H](CCCCN)C(=O)N[C@@H](CC(C)C)C(=O)N[C@@H](CCCNC(=N)N)C(=O)N[C@@H](CO)C(=O)N[C@@H](CCSC)C(=O)N[C@H](C(=O)N[C@@H](CC(=O)O)C(=O)N[C@@H](CCCCN)C(=O)N[C@@H](Cc1ccc(O)cc1)C(N)=O)[C@@H](C)O) [CXCR4 i1 loop compound 37] , state its measured Max (% of), CHTX, SUP B-15, 1.0 uM.
Reply: 91.1%

Task item: Give a short answer stating reported Max (% of), CHTX, SUP B-15, 1.0 uM for Palmitoyl-VMGYQKKLRSMTD-NH2 (SMILES CCCCCCCCCCCCCCCC(=O)N[C@H](C(=O)N[C@@H](CCSC)C(=O)NCC(=O)N[C@@H](Cc1ccc(O)cc1)C(=O)N[C@@H](CCC(N)=O)C(=O)N[C@@H](CCCCN)C(=O)N[C@@H](CCCCN)C(=O)N[C@@H](CC(C)C)C(=O)N[C@@H](CCCNC(=N)N)C(=O)N[C@@H](CO)C(=O)N[C@@H](CCSC)C(=O)N[C@H](C(=O)N[C@@H](CC(=O)O)C(N)=O)[C@@H](C)O)C(C)C) [CXCR4 i1 loop compound 35] .
Reply: 49.3%
